Here, each record is paired with measured Growth Rate data.
system: HEK-293T; assay: Incucyte cell viability with HEK293T; format: toxicity, cell-based; settings: human, 18 h, 10 µM, compound concentration 10 uM, replicate number 2, timepoint 18 hours; further: filed as whole numbers so only -1 and 0 and 1 occur
Give the figure only, with no unit attached.

Record excerpt, results attached:
[
  {
    "MOLECULE": "CCOc1cc(N2CCC(O)CC2)ccc1Nc1ncc2c(n1)N(C)c1ccccc1C(=O)N2C",
    "Growth Rate": 1
  },
  {
    "MOLECULE": "C=CC(=O)Nc1cccc(C(=O)Nc2ccc(Nc3cc(-c4[nH]c(SC)nc4C)ccn3)cc2)c1",
    "Growth Rate": 1
  },
  {
    "MOLECULE": "CCC(=O)N1CCOc2c(cc(-c3ccc(OC)c(OC)c3)cc2OC[C@H]2CCCN(C)C2)C1",
    "Growth Rate": 1
  },
  {
    "MOLECULE": "CN([C@@H]1CCc2c(CC(=O)O)c3cc(S(C)(=O)=O)ccc3n2C1)S(=O)(=O)c1ccc(F)cc1 [CRTH2-negative-control]",
    "Growth Rate": 1
  },
  {
    "MOLECULE": "Nc1c(C(=O)NCc2ccc(C(=O)NCCCC3CCCCC3)cc2)cnn1-c1ccccc1 [SR-318]",
    "Growth Rate": 0
  },
  {
    "MOLECULE": "CCCCN1CCC(COC(=O)c2cc(Cl)c(N)c3c2OCCO3)CC1.Cl",
    "Growth Rate": 1
  },
  {
    "MOLECULE": "CS(=O)(=O)c1cccc(NC(=O)N(Cc2ccc(C(=O)Nc3nn[nH]n3)cc2)c2ccc(C3CCCCC3)cc2)c1",
    "Growth Rate": 0
  },
  {
    "MOLECULE": "Cc1sc2c(c1C)C(c1ccc(Cl)cc1)=N[C@@H](CC(=O)OC(C)(C)C)c1nnc(C)n1-2",
    "Growth Rate": 0
  }
]

// CN([C@@H]1CCc2c(CC(=O)O)c3ccccc3n2C1)S(=O)(=O)c1ccc(F)cc1 [MK-7246] : Growth Rate value = 1

// O=C(O)C[C@H]1CCc2c1[nH]c1ccc(OCc3ccc(C4CCCC4)c(C(F)(F)F)c3)cc21 [ETRASIMOD] : Growth Rate value = 1

// "Cc1[nH]c(/C=C2\C(=O)Nc3ccc(S(=O)(=O)N(C)c4cccc(Cl)c4)cc32)c(C)c1C(=O)N1CCN(C)CC1" : Growth Rate value = 1

// "Br.Br.N=C(N)SCCc1c[nH]cn1" : Growth Rate value = 0

// O=C(NCc1ncc(C(F)(F)F)cc1Cl)c1ccc2c(c1)C1(CCS(=O)(=O)CC1)[C@H](C1CC1)N2S(=O)(=O)c1ccc(F)cc1 [BAY-784] : Growth Rate value = 0

// COc1ccc2cc(OCC3(C(=O)O)CN(C(=O)c4ccc(F)cc4)C3)ccc2c1 [PF-04418948] : Growth Rate value = 0

// COc1cccc(OC)c1-c1cc(C(=O)NC2(C(=O)O)C3CC4CC(C3)CC2C4)nn1-c1ccc(C(=O)N(C)CCCN(C)C)cc1C(C)C (stereo unspecified) : Growth Rate value = 0

// N#CC(Cc1ccc(O)cc1)c1ccc(O)cc1 (stereo unspecified) [DIARYLPROPIONITRILE] : Growth Rate value = 1

* * *

system: U2OS; test: Multiplex assay against U2OS; format: toxicity, cell-based; settings: human, 24 h, 1 µM, compound concentration 1 uM, replicate 1
Short version: Population Healthy Nuclei (%) at least 60% is Met, less is Not met.

Known results for compounds:
[
  {
    "COMPOUND": "Cc1c(-c2ccc(O)cc2)n(Cc2ccc(OCCN3CCCCCC3)cc2)c2ccc(O)cc12 [BAZEDOXIFENE]",
    "SYSTEM_TESTED": "U2OS",
    "GROUP_LABEL": "Met"
  },
  {
    "COMPOUND": "Cc1nc(Nc2n[nH]c3c2CN(C(=O)N[C@H](CN(C)C)c2ccccc2)C3(C)C)c2sccc2n1 [PF-03758309]",
    "SYSTEM_TESTED": "U2OS",
    "GROUP_LABEL": "Met"
  },
  {
    "COMPOUND": "CN(C)CC#Cc1ccc(OCCCc2sc(N3CCc4cccc(C(=O)Nc5nc6ccccc6s5)c4C3)nc2C(=O)O)c(F)c1 [A-1155463]",
    "SYSTEM_TESTED": "U2OS",
    "GROUP_LABEL": "Not met"
  },
  {
    "COMPOUND": "C=CC(=O)Nc1cc2c(Nc3ccc(F)c(Cl)c3)ncnc2cc1OCCCN1CCOCC1.Cl.Cl [CANERTINIB DIHYDROCHLORIDE]",
    "SYSTEM_TESTED": "U2OS",
    "GROUP_LABEL": "Not met"
  },
  {
    "COMPOUND": "CN1CCN(c2ccc(OC(F)(F)F)c(Nc3ncc4c(n3)-c3c(c(C(N)=O)nn3CCO)CC4)c2)CC1 [ONVANSERTIB]",
    "SYSTEM_TESTED": "U2OS",
    "GROUP_LABEL": "Met"
  }
]

Is it the case that C[C@@H](NCCCc1cccc(C(F)(F)F)c1)c1cccc2ccccc12.Cl [CINACALCET HYDROCHLORIDE] has Population Healthy Nuclei (%) reaching or exceeding 60%?
Met

* * *

test system: HEK-293T; test: Multiplex assay against HEK293T; format: toxicity, cell-based; conditions: human, 24 h, 10 µM, compound concentration 10 uM, replicate 1
MEASURED_PROPERTY: Population Mitochondria Different-Phenotype (%)
// units = %; emit number, no label

[
  {
    "COMPOUND": "CC(C)NCC(O)COc1ccc(CCOCC2CC2)cc1.Cl (stereo unspecified) [BETAXOLOL HYDROCHLORIDE]",
    "UNITS_TEXT": "%",
    "MEASURED_NUMBER": 98
  },
  {
    "COMPOUND": "COc1cc2nccc(Oc3ccc(NC(=O)Nc4cc(C)on4)c(Cl)c3)c2cc1OC.O",
    "UNITS_TEXT": "%",
    "MEASURED_NUMBER": 100
  },
  {
    "COMPOUND": "CC[C@H](C)C(=O)O[C@H]1C[C@@H](C)C=C2C=C[C@H](C)[C@H](CC[C@@H]3C[C@@H](O)CC(=O)O3)[C@H]21",
    "UNITS_TEXT": "%",
    "MEASURED_NUMBER": 73
  },
  {
    "COMPOUND": "Cc1nc(-c2cn3c(n2)-c2ccc(-c4cnn(C(C)(C)C(N)=O)c4)cc2OCC3)n(C(C)C)n1",
    "UNITS_TEXT": "%",
    "MEASURED_NUMBER": 5
  },
  {
    "COMPOUND": "Cc1c(-c2ccc(O)cc2)n(Cc2ccc(OCCN3CCCCCC3)cc2)c2ccc(O)cc12",
    "UNITS_TEXT": "%",
    "MEASURED_NUMBER": 100
  },
  {
    "COMPOUND": "c1cn2cc(-c3ccc4cn[nH]c4c3)nc(Nc3ccc(N4CCOCC4)cc3)c2n1",
    "UNITS_TEXT": "%",
    "MEASURED_NUMBER": 85
  },
  {
    "COMPOUND": "Cn1cncc1[C@@](O)(COc1ccc(C#N)cc1-c1ccc(OC(F)(F)F)cc1)c1ccc(C#N)cc1",
    "UNITS_TEXT": "%",
    "MEASURED_NUMBER": 4
  },
  {
    "COMPOUND": "Cc1nc(-c2ccc(-c3ccc(C(=O)N4CCc5cc6c(cc54)C4(CCN(C)CC4)CO6)cc3)c(C)c2)no1",
    "UNITS_TEXT": "%",
    "MEASURED_NUMBER": 100
  },
  {
    "COMPOUND": "CCN(CC)CCCCNc1ncc2cc(-c3cc(OC)cc(OC)c3)c(NC(=O)NC(C)(C)C)nc2n1",
    "UNITS_TEXT": "%",
    "MEASURED_NUMBER": 9
  },
  {
    "COMPOUND": "CN1CCC[C@@H]1CCO[C@](C)(c1ccccc1)c1ccc(Cl)cc1.O=C(O)/C=C/C(=O)O [CLEMASTINE FUMARATE]",
    "UNITS_TEXT": "%",
    "MEASURED_NUMBER": 100
  }
]

// "Cc1[nH]c(/C=C2\C(=O)Nc3ccc(S(=O)(=O)N(C)c4cccc(Cl)c4)cc32)c(C)c1C(=O)N1CCN(C)CC1" : Population Mitochondria Different-Phenotype (%) value = 100

// Cl.N#Cc1ccc2[nH]cc(CCCCN3CCN(c4ccc5oc(C(N)=O)cc5c4)CC3)c2c1 [VILAZODONE HYDROCHLORIDE] : Population Mitochondria Different-Phenotype (%) value = 100

// "CN1CCN(CCOc2cc(OC3CCOCC3)c3c(Nc4c(Cl)ccc5c4OCO5)ncnc3c2)CC1" : Population Mitochondria Different-Phenotype (%) value = 100

// "C=CC(=O)Nc1cccc(C(=O)Nc2ccc(Nc3cc(-c4[nH]c(SC)nc4C)ccn3)cc2)c1" : Population Mitochondria Different-Phenotype (%) value = 80

// "COc1cc(-n2cnc3cc(-c4ccc(Cl)cc4)sc3c2=O)ccc1OCCN1CCCC1" : Population Mitochondria Different-Phenotype (%) value = 0

// "CN(C)CC#Cc1ccc(OCCCc2sc(N3CCc4cccc(C(=O)Nc5nc6ccccc6s5)c4C3)nc2C(=O)O)c(F)c1" : Population Mitochondria Different-Phenotype (%) value = 35
